Each recorded value in this set is attributed to ChEMBL document CHEMBL2057102.

Organism: Homo sapiens
protocol-summary: Inhibition of heparin-induced alexa red-labelled tau K18PL mutant aggregation after 6 hrs by thioflavin-T fluorescence assay relative to control
assay-readout: Imax (%)

[[record]]
line_notation = "Cc1nn(CC(F)(F)F)c(=O)c2c(N)scc12"
assay_readout = "Imax"
unit = "%"
meas_value = 81

[[record]]
line_notation = "CCOC(=O)c1nn(-c2cccc(Cl)c2)c(=O)c2c(N)scc12"
assay_readout = "Imax"
unit = "%"
meas_value = 82

[[record]]
line_notation = "Nc1scc2c(C(=O)NC3CC3)nn(-c3ccccc3Cl)c(=O)c12"
assay_readout = "Imax"
unit = "%"
meas_value = 68


* * *

Species: Homo sapiens
protocol-summary: Inhibition of heparin-induced alexa red-labelled tau K18PL mutant aggregation after 6 hrs by thioflavin-T fluorescence assay relative to control
assay-readout: Imax (%)

[[record]]
line_notation = "CC(C)NC(=O)c1nn(-c2cccc(Cl)c2)c(=O)c2c(N)scc12"
meas_value = 82

[[record]]
line_notation = "CC(C)c1ccc(-n2nc(C(=O)NC3CC3)c3csc(N)c3c2=O)cc1"
meas_value = 82

[[record]]
line_notation = "CCOC(=O)c1nn(-c2ccc(O)cc2)c(=O)c2c(N)scc12"
meas_value = 81

